Numbers sourced from patent US6521594B1.

biological target: platelets (Homo sapiens, UniProt P05106+P08514); format: cell-based; conditions: ADP 10 μm; citrated PRP; read-out: ADP-Stimulated Aggregation (IC50)
Sequence (P08514 32-1039, one chain of several): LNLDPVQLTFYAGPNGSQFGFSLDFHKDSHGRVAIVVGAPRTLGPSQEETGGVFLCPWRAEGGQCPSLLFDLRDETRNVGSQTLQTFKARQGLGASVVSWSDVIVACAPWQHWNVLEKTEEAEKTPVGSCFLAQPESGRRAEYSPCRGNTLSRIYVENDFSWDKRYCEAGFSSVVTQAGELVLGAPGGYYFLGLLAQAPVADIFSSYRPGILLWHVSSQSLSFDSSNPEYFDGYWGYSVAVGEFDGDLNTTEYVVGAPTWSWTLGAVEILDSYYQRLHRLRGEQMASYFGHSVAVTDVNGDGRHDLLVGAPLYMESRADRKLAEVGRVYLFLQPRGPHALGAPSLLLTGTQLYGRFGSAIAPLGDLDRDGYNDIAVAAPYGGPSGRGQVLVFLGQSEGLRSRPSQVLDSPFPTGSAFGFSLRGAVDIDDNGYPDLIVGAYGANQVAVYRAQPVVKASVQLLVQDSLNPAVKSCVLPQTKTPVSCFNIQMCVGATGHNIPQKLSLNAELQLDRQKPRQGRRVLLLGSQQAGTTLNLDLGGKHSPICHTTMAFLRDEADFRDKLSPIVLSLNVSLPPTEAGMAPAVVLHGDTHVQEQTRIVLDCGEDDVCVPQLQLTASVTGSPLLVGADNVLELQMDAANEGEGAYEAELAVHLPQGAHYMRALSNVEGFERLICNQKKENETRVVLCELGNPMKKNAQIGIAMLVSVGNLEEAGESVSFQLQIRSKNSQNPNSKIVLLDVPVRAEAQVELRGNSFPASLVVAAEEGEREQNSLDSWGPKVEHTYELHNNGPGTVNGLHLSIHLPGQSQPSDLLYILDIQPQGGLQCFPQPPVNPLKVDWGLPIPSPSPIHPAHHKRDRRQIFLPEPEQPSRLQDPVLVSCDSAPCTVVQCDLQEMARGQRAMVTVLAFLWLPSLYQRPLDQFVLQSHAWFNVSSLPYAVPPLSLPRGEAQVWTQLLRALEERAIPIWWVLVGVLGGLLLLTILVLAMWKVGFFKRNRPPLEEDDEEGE
Non-standard residues stand in square brackets, D forms with d. No end group written: not given here. Pen = CC(C)(S)[C@H](N)C(=O)O
# maps each entry to its pIC50
Field pIC50 (float): negative decimal logarithm of the concentration in molar.

GET /values?readout=pIC50&item= G(Pen)LRGDTPCA 4.07

GET /values?readout=pIC50&item= G[Pen]GRGDSFCA (cysteine pairing not given here) 3.94

====

molecular target: vitronectin receptor (Vn-R) (Homo sapiens, UniProt P05106+P06756); construct: from tissue; host or cells: human placenta; test: Vitronectin receptor binding (ELISA or liposome attachment assay); conditions: read-out: VnR Binding (IC50), purified receptor
Sequence (P06756 31-889 limits assumed): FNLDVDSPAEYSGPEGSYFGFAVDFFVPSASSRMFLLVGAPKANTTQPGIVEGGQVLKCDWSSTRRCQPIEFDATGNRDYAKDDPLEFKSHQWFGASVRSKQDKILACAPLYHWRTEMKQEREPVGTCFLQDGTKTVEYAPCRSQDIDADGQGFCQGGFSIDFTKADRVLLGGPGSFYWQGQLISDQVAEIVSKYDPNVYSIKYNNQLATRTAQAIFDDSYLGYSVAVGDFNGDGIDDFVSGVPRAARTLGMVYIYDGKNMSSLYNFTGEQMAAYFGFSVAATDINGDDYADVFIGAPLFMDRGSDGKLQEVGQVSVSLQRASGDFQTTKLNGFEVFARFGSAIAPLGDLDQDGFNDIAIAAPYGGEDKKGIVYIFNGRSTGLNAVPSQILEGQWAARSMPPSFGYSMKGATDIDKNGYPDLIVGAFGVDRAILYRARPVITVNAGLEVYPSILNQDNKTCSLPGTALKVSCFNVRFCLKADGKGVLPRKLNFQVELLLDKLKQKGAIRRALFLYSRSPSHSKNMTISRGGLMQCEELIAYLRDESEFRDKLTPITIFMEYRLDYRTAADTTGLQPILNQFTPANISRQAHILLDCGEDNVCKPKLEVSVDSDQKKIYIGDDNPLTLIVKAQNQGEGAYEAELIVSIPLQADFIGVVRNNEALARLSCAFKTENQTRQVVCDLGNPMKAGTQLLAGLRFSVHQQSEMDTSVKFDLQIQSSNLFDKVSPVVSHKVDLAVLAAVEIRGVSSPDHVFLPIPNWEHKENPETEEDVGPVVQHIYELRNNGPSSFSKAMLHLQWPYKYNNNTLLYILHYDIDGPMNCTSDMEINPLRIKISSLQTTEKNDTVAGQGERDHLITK
Sequence (P06756 891-1048 limits assumed): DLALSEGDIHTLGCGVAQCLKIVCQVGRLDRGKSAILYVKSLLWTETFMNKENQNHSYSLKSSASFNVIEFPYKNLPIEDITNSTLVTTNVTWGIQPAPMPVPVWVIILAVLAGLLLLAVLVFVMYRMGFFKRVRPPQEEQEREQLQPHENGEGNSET
Sequence (P05106 27-788): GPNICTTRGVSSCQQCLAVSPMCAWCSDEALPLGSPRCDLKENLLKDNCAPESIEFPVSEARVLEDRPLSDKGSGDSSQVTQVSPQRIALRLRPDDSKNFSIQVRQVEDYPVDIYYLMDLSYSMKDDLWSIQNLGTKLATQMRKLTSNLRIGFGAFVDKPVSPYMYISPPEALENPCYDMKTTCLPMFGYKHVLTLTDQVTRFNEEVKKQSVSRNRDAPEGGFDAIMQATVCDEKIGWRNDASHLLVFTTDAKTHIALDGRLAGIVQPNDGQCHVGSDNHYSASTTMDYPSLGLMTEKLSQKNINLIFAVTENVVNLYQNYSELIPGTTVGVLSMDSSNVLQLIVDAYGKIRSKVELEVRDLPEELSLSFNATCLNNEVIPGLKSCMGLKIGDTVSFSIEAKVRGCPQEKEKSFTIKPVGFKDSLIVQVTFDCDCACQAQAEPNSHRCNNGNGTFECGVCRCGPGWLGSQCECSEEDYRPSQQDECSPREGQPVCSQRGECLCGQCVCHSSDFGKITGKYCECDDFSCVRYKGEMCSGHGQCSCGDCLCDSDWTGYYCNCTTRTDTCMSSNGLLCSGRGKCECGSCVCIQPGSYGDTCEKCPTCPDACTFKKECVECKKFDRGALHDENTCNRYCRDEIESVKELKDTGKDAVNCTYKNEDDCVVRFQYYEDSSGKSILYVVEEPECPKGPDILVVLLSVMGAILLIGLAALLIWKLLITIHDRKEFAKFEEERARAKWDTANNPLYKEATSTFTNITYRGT
ENDPOINT LABEL: pIC50
Field pIC50 (float): negative decimal logarithm of the concentration in molar.

GET /values?readout=pIC50&item= G(Pen)IARGDWNCA 7.40

====

biological target: platelets (Homo sapiens, UniProt P05106+P08514); type: cell-based; settings: ADP 10 μm; citrated PRP; read-out: ADP-Stimulated Aggregation (IC50)
No end group written: not given here. *: point of attachment. Pmc = Cc1c(C)c(S(=O)(=O)*)c(C)c2c1OC(C)(C)CC2
ENDPOINT LABEL: IC50 (µM)
Kindly provide the numeric value in µM only, without the unit symbol.

# count of solved cases: 6
(t-but-am-Pmp)GHRGDLR(Pen)A : 89
G(Pen)GHRGDTRCA : 11.3
R(Pmc)GHRGDYRCR : 1
R2(Pen)GRGDTPCA : 8.2
R(Pen)GHRGDWRCR [4Q] : 1.3
R(Pmc)GHRGDVRCR : 0.69

Lab note: next substance to report on.
Find IC50 (platelets (Homo sapiens, UniProt P05106+P08514)) for the entry G(Pen)LRGDSPCA 415

====

target: platelets (Homo sapiens, UniProt P05106+P08514); type: cell-based; details: ADP 10 μm; citrated PRP; read-out: ADP-Stimulated Aggregation (IC50)
No end group written: not given here. *: point of attachment. Pmc = Cc1c(C)c(S(=O)(=O)*)c(C)c2c1OC(C)(C)CC2
ENDPOINT LABEL: IC50 (µM)
Kindly provide the numeric value in µM only, without the unit symbol.

# count of solved cases: 4
G(Pen)LRGDSRCA : 41
G(Pen)GRGDTPCA : 22.3
R(Pen)GRGDTPCA : 7
G(Pen)GRGDRPCA : 22.3

GET /values?readout=IC50&item= L(Pen)GHRGDLRCA 10.5

GET /values?readout=IC50&item= R(Pmc)GHRGDFRCR 0.62
